- system: Transient receptor potential cation channel subfamily V member 1 (Rattus norvegicus, UniProt O35433)
- Sequence (O35433 whole entry): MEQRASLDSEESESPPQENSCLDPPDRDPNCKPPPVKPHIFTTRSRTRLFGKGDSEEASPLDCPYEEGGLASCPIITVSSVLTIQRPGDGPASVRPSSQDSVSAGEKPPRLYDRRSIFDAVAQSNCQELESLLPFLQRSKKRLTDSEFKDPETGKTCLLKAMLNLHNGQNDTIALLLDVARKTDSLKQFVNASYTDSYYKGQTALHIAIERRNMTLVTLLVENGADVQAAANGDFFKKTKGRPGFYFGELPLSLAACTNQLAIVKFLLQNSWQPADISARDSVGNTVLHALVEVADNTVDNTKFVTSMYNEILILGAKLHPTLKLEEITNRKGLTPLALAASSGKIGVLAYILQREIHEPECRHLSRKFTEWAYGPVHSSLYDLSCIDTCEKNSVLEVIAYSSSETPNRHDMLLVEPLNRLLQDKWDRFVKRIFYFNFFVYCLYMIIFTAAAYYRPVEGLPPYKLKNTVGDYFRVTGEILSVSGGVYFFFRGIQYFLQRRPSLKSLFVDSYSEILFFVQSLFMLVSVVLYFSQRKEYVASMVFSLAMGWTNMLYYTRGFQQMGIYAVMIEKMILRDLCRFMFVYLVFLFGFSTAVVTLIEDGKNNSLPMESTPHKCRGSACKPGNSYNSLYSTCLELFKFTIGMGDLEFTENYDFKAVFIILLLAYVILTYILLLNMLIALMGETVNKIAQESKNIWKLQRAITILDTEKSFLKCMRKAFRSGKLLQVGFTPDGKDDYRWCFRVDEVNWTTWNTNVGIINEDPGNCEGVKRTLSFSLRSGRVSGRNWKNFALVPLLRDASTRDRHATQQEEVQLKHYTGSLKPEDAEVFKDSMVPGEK
- assay procedure: Antagonist activity at rat TRPV1 expressed in Xenopus laevis oocytes assessed as blockage of capsaicin-induced current at holding potential -60 mV by two-microelectrode voltage -clamp amplifier
pIC50: −log10 of the molar value.
Binary classification by pIC50, with 6 as an inclusive lower bound for Condition met; all other cases are Condition not met.

{"columns": ["molecule smiles", "label value"],
 "data": [
  ["CN(C)CCCCCNc1nc(NCCc2ccc(F)cc2)nc(NCCc2ccc(F)cc2)n1", "Condition met"],
  ["NC(N)=NCCCCNc1nc(NCCc2ccc(F)cc2)nc(NCCc2ccc(F)cc2)n1", "Condition met"],
  ["CN(C)CCCNc1nc(NCc2ccc(F)cc2)nc(NCc2ccc(F)cc2)n1", "Condition not met"],
  ["CN(C)CCCNc1nc(NCCc2cccc(F)c2)nc(NCCc2cccc(F)c2)n1", "Condition met"],
  ["CN1CCC(N2CCN(c3nc(NCCc4ccc(F)cc4)nc(NCCc4ccc(F)cc4)n3)CC2)CC1", "Condition not met"],
  ["CN(C)CCOCCNc1nc(NCCc2ccc(F)cc2)nc(NCCc2ccc(F)cc2)n1", "Condition not met"],
  ["CN(C)CCCOc1nc(NCCc2ccc(F)cc2)nc(NCCc2ccc(F)cc2)n1", "Condition not met"],
  ["CN(C)CCCNc1nc(NCc2ccc(F)cc2F)nc(NCc2ccc(F)cc2F)n1", "Condition not met"]
]}
